Sourced from patent US20260337177A1

Test system: AML12 cells
assay.summary: AML12 normal liver cell growth inhibition (CCK8)
Type: cell-based
measurement.conditions: 10 μM; 3 days
The recorded Inhibitory rate, AML12 (inhibitory percentage of AML12 cell growth) of each item maps onto one of these classes: low interval = under 30%, middle interval = from 30% up to 50%, high interval = 50% and over

C=CC(=O)NCc1c[nH]c2cc(Cl)c(OCc3ccc4ccccc4c3)cc12 [Compound 9]; low interval
O=C(CCl)c1c[nH]c2cc(Cl)c(OCc3ccc4ccccc4c3)cc12 [Compound 2]; middle interval
N#C/C(=C\c1c[nH]c2cc(Cl)c(OCc3ccc4ccccc4n3)cc12)C(N)=O [Compound 20]; low interval
N#C/C(=C\c1c[nH]c2cc(Cl)c(OCc3cccc(C(F)(F)F)c3)cc12)C(N)=O [Compound 21]; high interval
O=C(CCl)c1c[nH]c2cc(Cl)c(OCc3ccccc3)cc12 [Compound 1]; middle interval
C=CC(=O)NCc1c[nH]c2cc(Cl)c(OCc3ccccc3)cc12 [Compound 11]; low interval
N#C/C(=C\c1c[nH]c2cc(Cl)c(OCc3ccc4ccccc4c3)cc12)C(N)=O [Compound 17]; high interval
O=C(CCl)NCc1c[nH]c2cc(Cl)c(OCc3ccccc3)cc12 [Compound 12]; middle interval
N#C/C(=C\c1c[nH]c2cc(Cl)c(OCc3ccccc3)cc12)C(N)=O [Compound 16]; low interval
COc1cc2[nH]cc(C(=O)CCl)c2cc1OCc1ccc2ccccc2c1 [Compound 5]; high interval
C=CC(=O)NCc1c[nH]c2cc(Cl)c(OCc3cccc4ccccc34)cc12 [Compound 10]; low interval
C=C(CN(C)C)C(=O)NCc1c[nH]c2cc(Cl)c(OCc3ccccc3)cc12 [Compound 25]; middle interval
N#C/C(=C\c1c[nH]c2cc(Cl)c(OCc3cccc4ccccc34)cc12)C(N)=O [Compound 18]; high interval
O=C(CCl)NCc1c[nH]c2cc(Cl)c(OCc3cccc4ccccc34)cc12 [Compound 14]; high interval
O=C(CCl)NCc1c[nH]c2cc(Cl)c(OCc3ccc4ccccc4c3)cc12 [Compound 13]; middle interval
COc1cc2[nH]cc(C(=O)CCl)c2cc1OCc1cccc2ccccc12 [Compound 6]; high interval
